protocol_summary: Inhibition of Granuloma Formation by Cotton Pellet Method
Assay type: in vivo, male Donryu rats
assay_setup: rat, in vivo; rats, oral; ratio of LD50 to ED20; read-out: LD50/ED20, Cotton Pellet Method (safety margin)
readout: selectivity ratio
Please respond with just the number, no unit label.

Prompt: State its selectivity ratio: CCC(Cc1ccc(C(C)C(=O)O)cc1)C(C)O (stereo not shown) [Compound D]
Completion: 400

###

protocol_summary: in vivo
assay_setup: rat, in vivo; rats, oral, 7-day observation; read-out: Acute Toxicity LD50
readout: LD50 at 168 h (mg/kg)
Field format: number, assumed mg/kg, no unit text.

Prompt: State its LD50 at 168 h: CCC(Cc1ccc(C(C)C(=O)O)cc1)C(C)O (stereo not shown)
Completion: 132

###

protocol_summary: Inhibition of Carrageenin-Induced Paw Edema
Type: in vivo, male Donryu rats
assay_setup: rat, in vivo; rats, oral; ratio of LD50 to ED40; read-out: LD50/ED40, Carrageenin-Induced Paw Edema (safety margin)
readout: selectivity ratio
Please respond with just the number, no unit label.

Prompt: State its selectivity ratio: CCC(Cc1ccc(C(C)C(=O)O)cc1)C(C)O (stereo not shown) [Compound D]
Completion: 52.8

# credit: patent US4092350A
